The measurements presented in this section are drawn from ChEMBL document CHEMBL1201862.

system: A498; assay: NCI tumour cell line growth inhibition, 48 h
The source made the active and inactive calls. Rule as the data show it: active = GI50 up to about 1.1 µM and inactive = higher.
Select the correct class. Options are active, inactive and nothing else.

Request: Kindly provide the recorded test outcome for the following molecule: CC(=O)NC1C(OCc2ccccc2)OC(CO)C(O)C1OC(C)C(=O)NC(C)C(=O)N[C@@H](CCC(=O)OCCCNC1c2ccccc2Nc2cccc([N+](=O)[O-])c21)C(N)=O (some centres not stated)
Response: active

Request: Kindly provide the recorded test outcome for the following molecule: COc1ccc2c(c1)CCCc1c-2nc2ccccc2c1N
Response: inactive

Request: Kindly provide the recorded test outcome for the following molecule: O=C1c2ccccc2C2=Cc3ccccc3C(O)N12 (configuration not stated)
Response: inactive

Request: Kindly provide the recorded test outcome for the following molecule: O=c1c(-c2ccccc2F)coc2cc(F)ccc12
Response: inactive

Request: Kindly provide the recorded test outcome for the following molecule: CC1(C)N=C(C2CCCN2C(=O)OCc2ccccc2)OC1=O (configuration not stated)
Response: inactive

Request: Kindly provide the recorded test outcome for the following molecule: COC1CCC(OS(C)(=O)=O)CO1 (configuration not stated)
Response: inactive

Request: Kindly provide the recorded test outcome for the following molecule: CN(C)c1ccc(/C=C2\Cc3ccccc3C2=O)cc1Br
Response: inactive
